conditionsUsed: in ethanol, 308.15 K
property: solubility (mole fraction)

Exercise: // solubility (mole fraction) lookup, key: `COC(=O)[C@H]1[C@H]2C[C@@H]3c4[nH]c5cc(OC)ccc5c4CCN3C[C@H]2C[C@@H](OC(=O)c2cc(OC)c(OC)c(OC)c2)[C@@H]1OC`
Key: 1.25e-05

* * *

conditionsUsed: in water, 338.15 K
property: solubility (mole fraction)
Give a plain numeric answer without units written out.

Exercise: Consider the compound `COC(=O)[C@H]1[C@H]2C[C@@H]3c4[nH]c5cc(OC)ccc5c4CCN3C[C@H]2C[C@@H](OC(=O)c2cc(OC)c(OC)c(OC)c2)[C@@H]1OC` and give its measured solubility (mole fraction).
Key: 2.25e-06

* * *

conditionsUsed: in isopropanol, 338.15 K
property: solubility (mole fraction)
Please respond with just the number, no unit label.

Exercise: What solubility (mole fraction) value was documented for this compound, `COC(=O)[C@H]1[C@H]2C[C@@H]3c4[nH]c5cc(OC)ccc5c4CCN3C[C@H]2C[C@@H](OC(=O)c2cc(OC)c(OC)c(OC)c2)[C@@H]1OC` ?
Key: 6.07e-05

* * *

conditionsUsed: in isopropanol, 328.15 K
property: solubility (mole fraction)
No unit in the answer, please; the number alone is enough.

Exercise: Give its solubility (mole fraction) value. Item: `COC(=O)[C@H]1[C@H]2C[C@@H]3c4[nH]c5cc(OC)ccc5c4CCN3C[C@H]2C[C@@H](OC(=O)c2cc(OC)c(OC)c(OC)c2)[C@@H]1OC`
Key: 4.95e-05

* * *

conditionsUsed: in ethyl acetate, 318.15 K
property: solubility (mole fraction)
Enter a number only.

Exercise: Could you share which solubility (mole fraction) value was measured for `COC(=O)[C@H]1[C@H]2C[C@@H]3c4[nH]c5cc(OC)ccc5c4CCN3C[C@H]2C[C@@H](OC(=O)c2cc(OC)c(OC)c(OC)c2)[C@@H]1OC` ?
Key: 0.000723

* * *

conditionsUsed: in transcutol, 318.15 K
property: solubility (mole fraction)

Exercise: Give the measured solubility (mole fraction) of `COC(=O)[C@H]1[C@H]2C[C@@H]3c4[nH]c5cc(OC)ccc5c4CCN3C[C@H]2C[C@@H](OC(=O)c2cc(OC)c(OC)c(OC)c2)[C@@H]1OC` .
Key: 0.0011

* * *

conditionsUsed: in propylene glycol, 338.15 K
property: solubility (mole fraction)
A bare number is all that is needed in reply.

Exercise: For `COC(=O)[C@H]1[C@H]2C[C@@H]3c4[nH]c5cc(OC)ccc5c4CCN3C[C@H]2C[C@@H](OC(=O)c2cc(OC)c(OC)c(OC)c2)[C@@H]1OC` , what is its reported solubility (mole fraction)?
Key: 5.5e-05

* * *

conditionsUsed: in isopropanol, 318.15 K
property: solubility (mole fraction)
Give a plain numeric answer without units written out.

Exercise: Given the compound `COC(=O)[C@H]1[C@H]2C[C@@H]3c4[nH]c5cc(OC)ccc5c4CCN3C[C@H]2C[C@@H](OC(=O)c2cc(OC)c(OC)c(OC)c2)[C@@H]1OC` , what is its reported solubility (mole fraction)?
Key: 4.02e-05

* * *

conditionsUsed: in ethanol, 318.15 K
property: solubility (mole fraction)
Lab note: record just the number, no unit beside it.

Exercise: For `COC(=O)[C@H]1[C@H]2C[C@@H]3c4[nH]c5cc(OC)ccc5c4CCN3C[C@H]2C[C@@H](OC(=O)c2cc(OC)c(OC)c(OC)c2)[C@@H]1OC` , what is its reported solubility (mole fraction)?
Key: 1.59e-05

* * *

conditionsUsed: in ethylene glycol, 298.15 K
property: solubility (mole fraction)
Write the value as a bare number.

Exercise: Consider the compound shown here: `COC(=O)[C@H]1[C@H]2C[C@@H]3c4[nH]c5cc(OC)ccc5c4CCN3C[C@H]2C[C@@H](OC(=O)c2cc(OC)c(OC)c(OC)c2)[C@@H]1OC` What is its recorded solubility (mole fraction)?
Key: 5.3e-05

* * *

conditionsUsed: in PEG-400, 318.15 K
property: solubility (mole fraction)

Exercise: Requested field: solubility (mole fraction). Item: `COC(=O)[C@H]1[C@H]2C[C@@H]3c4[nH]c5cc(OC)ccc5c4CCN3C[C@H]2C[C@@H](OC(=O)c2cc(OC)c(OC)c(OC)c2)[C@@H]1OC`
Key: 0.00281

* * *

conditionsUsed: in water, 298.15 K
property: solubility (mole fraction)

Exercise: Form field: reported solubility (mole fraction) of `COC(=O)[C@H]1[C@H]2C[C@@H]3c4[nH]c5cc(OC)ccc5c4CCN3C[C@H]2C[C@@H](OC(=O)c2cc(OC)c(OC)c(OC)c2)[C@@H]1OC`
Key: 9.71e-07

* * *

conditionsUsed: in propylene glycol, 298.15 K
property: solubility (mole fraction)
Answer with the value's number alone.

Exercise: // returns reported solubility (mole fraction) for input `COC(=O)[C@H]1[C@H]2C[C@@H]3c4[nH]c5cc(OC)ccc5c4CCN3C[C@H]2C[C@@H](OC(=O)c2cc(OC)c(OC)c(OC)c2)[C@@H]1OC`
Key: 2.88e-05

* * *

conditionsUsed: in ethyl acetate, 298.15 K
property: solubility (mole fraction)
The answer should be written as a number, with no unit following it.

Exercise: Consider the compound shown here: `COC(=O)[C@H]1[C@H]2C[C@@H]3c4[nH]c5cc(OC)ccc5c4CCN3C[C@H]2C[C@@H](OC(=O)c2cc(OC)c(OC)c(OC)c2)[C@@H]1OC` What is its recorded solubility (mole fraction)?
Key: 0.000521

* * *

conditionsUsed: in PEG-400, 298.15 K
property: solubility (mole fraction)
Give your answer as a number; write no unit.

Exercise: What value of solubility (mole fraction) has been recorded for this entry: `COC(=O)[C@H]1[C@H]2C[C@@H]3c4[nH]c5cc(OC)ccc5c4CCN3C[C@H]2C[C@@H](OC(=O)c2cc(OC)c(OC)c(OC)c2)[C@@H]1OC`
Key: 0.00144

* * *

conditionsUsed: in transcutol, 338.15 K
property: solubility (mole fraction)
Give the value as a plain number.

Exercise: Find the recorded solubility (mole fraction) belonging to `COC(=O)[C@H]1[C@H]2C[C@@H]3c4[nH]c5cc(OC)ccc5c4CCN3C[C@H]2C[C@@H](OC(=O)c2cc(OC)c(OC)c(OC)c2)[C@@H]1OC` and report it.
Key: 0.00161

* * *

conditionsUsed: in transcutol, 328.15 K
property: solubility (mole fraction)
Response field accepts a number only; no unit should be typed.

Exercise: Item under review: `COC(=O)[C@H]1[C@H]2C[C@@H]3c4[nH]c5cc(OC)ccc5c4CCN3C[C@H]2C[C@@H](OC(=O)c2cc(OC)c(OC)c(OC)c2)[C@@H]1OC` . Reported solubility (mole fraction)?
Key: 0.00137

* * *

conditionsUsed: in ethyl acetate, 328.15 K
property: solubility (mole fraction)
When you answer, write just the number.

Exercise: Suppose we examine the compound `COC(=O)[C@H]1[C@H]2C[C@@H]3c4[nH]c5cc(OC)ccc5c4CCN3C[C@H]2C[C@@H](OC(=O)c2cc(OC)c(OC)c(OC)c2)[C@@H]1OC` ; what solubility (mole fraction) value has been reported?
Key: 0.000868

* * *

conditionsUsed: in water, 318.15 K
property: solubility (mole fraction)
Respond with the number and no other words.

Exercise: Entry `COC(=O)[C@H]1[C@H]2C[C@@H]3c4[nH]c5cc(OC)ccc5c4CCN3C[C@H]2C[C@@H](OC(=O)c2cc(OC)c(OC)c(OC)c2)[C@@H]1OC` : reported solubility (mole fraction) = ?
Key: 1.57e-06

* * *

conditionsUsed: in ethylene glycol, 338.15 K
property: solubility (mole fraction)
Keep it simple and answer with nothing but the number.

Exercise: Quick check: solubility (mole fraction) of `COC(=O)[C@H]1[C@H]2C[C@@H]3c4[nH]c5cc(OC)ccc5c4CCN3C[C@H]2C[C@@H](OC(=O)c2cc(OC)c(OC)c(OC)c2)[C@@H]1OC` ?
Key: 0.000143

* * *

conditionsUsed: in water, 308.15 K
property: solubility (mole fraction)
When you answer, write just the number.

Exercise: Look up solubility (mole fraction): `COC(=O)[C@H]1[C@H]2C[C@@H]3c4[nH]c5cc(OC)ccc5c4CCN3C[C@H]2C[C@@H](OC(=O)c2cc(OC)c(OC)c(OC)c2)[C@@H]1OC`
Key: 1.25e-06

* * *

conditionsUsed: in propylene glycol, 328.15 K
property: solubility (mole fraction)
Please respond with just the number, no unit label.

Exercise: # solubility (mole fraction) lookup, item `COC(=O)[C@H]1[C@H]2C[C@@H]3c4[nH]c5cc(OC)ccc5c4CCN3C[C@H]2C[C@@H](OC(=O)c2cc(OC)c(OC)c(OC)c2)[C@@H]1OC`
Key: 4.63e-05

* * *

conditionsUsed: in ethyl acetate, 308.15 K
property: solubility (mole fraction)
Please give only the number in your answer, with no unit.

Exercise: Please report the recorded solubility (mole fraction) for `COC(=O)[C@H]1[C@H]2C[C@@H]3c4[nH]c5cc(OC)ccc5c4CCN3C[C@H]2C[C@@H](OC(=O)c2cc(OC)c(OC)c(OC)c2)[C@@H]1OC` .
Key: 0.000608

Taken from BigSolDB 2.1.
